# target entity: recombinant guanylate cyclase reporter cell line (Rattus norvegicus, UniProt P20595)
# Sequence (P20595 whole entry): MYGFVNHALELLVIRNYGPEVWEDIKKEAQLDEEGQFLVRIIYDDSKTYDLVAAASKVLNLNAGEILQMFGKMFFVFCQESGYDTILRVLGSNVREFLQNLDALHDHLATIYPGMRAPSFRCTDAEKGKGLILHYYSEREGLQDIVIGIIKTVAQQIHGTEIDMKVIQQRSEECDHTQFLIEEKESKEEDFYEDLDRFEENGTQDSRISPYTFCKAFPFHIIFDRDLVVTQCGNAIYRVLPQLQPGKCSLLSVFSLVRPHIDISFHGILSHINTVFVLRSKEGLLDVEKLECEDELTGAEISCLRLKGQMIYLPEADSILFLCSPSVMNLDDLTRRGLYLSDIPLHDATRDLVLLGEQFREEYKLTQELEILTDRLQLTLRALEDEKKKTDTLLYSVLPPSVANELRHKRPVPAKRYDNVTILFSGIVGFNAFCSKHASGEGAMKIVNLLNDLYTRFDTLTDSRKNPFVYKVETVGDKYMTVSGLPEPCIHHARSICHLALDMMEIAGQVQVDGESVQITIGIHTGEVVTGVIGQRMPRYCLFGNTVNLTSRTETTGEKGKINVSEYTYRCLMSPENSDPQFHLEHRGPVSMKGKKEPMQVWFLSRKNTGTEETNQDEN
# Sequence (P19686 whole entry partner): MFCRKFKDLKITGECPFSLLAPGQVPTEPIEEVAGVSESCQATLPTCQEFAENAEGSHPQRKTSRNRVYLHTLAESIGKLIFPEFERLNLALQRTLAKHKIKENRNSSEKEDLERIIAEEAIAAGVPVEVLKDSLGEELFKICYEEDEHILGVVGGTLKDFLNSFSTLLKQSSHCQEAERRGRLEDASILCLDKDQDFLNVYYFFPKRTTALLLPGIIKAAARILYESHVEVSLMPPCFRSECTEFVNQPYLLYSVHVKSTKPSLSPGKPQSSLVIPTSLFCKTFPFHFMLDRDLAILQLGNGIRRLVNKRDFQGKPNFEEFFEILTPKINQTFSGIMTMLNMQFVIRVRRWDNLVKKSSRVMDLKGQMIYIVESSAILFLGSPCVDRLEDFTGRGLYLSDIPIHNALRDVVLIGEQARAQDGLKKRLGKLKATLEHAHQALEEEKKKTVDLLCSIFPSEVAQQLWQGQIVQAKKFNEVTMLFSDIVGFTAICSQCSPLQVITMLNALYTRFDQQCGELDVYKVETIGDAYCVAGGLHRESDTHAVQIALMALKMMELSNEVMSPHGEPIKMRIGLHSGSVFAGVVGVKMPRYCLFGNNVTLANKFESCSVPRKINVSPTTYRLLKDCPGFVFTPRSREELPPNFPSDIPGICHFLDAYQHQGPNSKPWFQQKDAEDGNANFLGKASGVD
# test description: Effect on a recombinant guanylate cyclase reporter cell line
# condition details: half maximal effective concentration; in some cases mean values from individual determinations
Where a name gives a salt, the structure may show the parent alone.
measured quantity: pEC50
The value called pEC50 is obtained by taking minus log10 of the concentration in mol/L.

compound	pEC50
O=C(O)c1cnn(C2CCCN(c3cc(Cl)ccc3-c3ccc(N4CCN(CC(F)(F)F)CC4)nc3)C2)c1C(F)(F)F (single isomer, unassigned) [Example 77]	7.08
CNC(=O)N1CCN(c2ccc(-c3ccc(Cl)cc3N3CCCC(n4ncc(C(=O)O)c4C(F)(F)F)C3)cc2)CC1 (single isomer, unassigned) [Example 65]	7.25

Problem: Which measured pEC50 belongs to CCN1CCN(c2ccc(-c3ccc(Cl)cc3N3CCCC(n4ncc(C(=O)O)c4C(F)(F)F)C3)c(F)c2)CC1 (single isomer, unassigned) [Example 68, hydrochloride] , tested on recombinant guanylate cyclase reporter cell line (Rattus norvegicus, UniProt P20595)?
Solution: 7.44

Problem: Next: CCN1CCN(c2ccc(-c3ccc(Cl)cc3N3CCCC(n4ncc(C(=O)O)c4C(F)(F)F)C3)c(C)c2)CC1 (single isomer, unassigned) [Example 73, hydrochloride]
Solution: 7.24

Problem: And COC(=O)N1CCN(c2ccc(-c3ccc(Cl)cc3N3CCCC(n4ncc(C(=O)O)c4C(F)(F)F)C3)cc2)CC1 (single isomer, unassigned) [Example 54] ?
Solution: 7.95

Problem: Let us now turn to O=C(O)c1cnn(C2CCCN(c3cc(Cl)ccc3-c3ccc(N4CCN(CC5CC5F)CC4)cc3)C2)c1C(F)(F)F (single isomer, unassigned) [Example 25, hydrochloride]
Solution: 7.66

Problem: Proceed to CCOC(=O)N1CCN(c2ccc(-c3ccc(Cl)cc3N3CCCC(n4ncc(C(=O)O)c4C(F)(F)F)C3)cc2)CC1 (single isomer, unassigned) [Example 55]
Solution: 7.98

---

# target entity: recombinant guanylate cyclase reporter cell line (Rattus norvegicus)
# test description: Effect on a recombinant guanylate cyclase reporter cell line
# condition details: half maximal effective concentration; in some cases mean values from individual determinations
Counter-ions that a name gives are not always drawn.
Listing of recorded EC50 by entry.
Kindly provide the numeric value in nM only, without the unit symbol.

For orientation, consider the following solved cases.
molecule	EC50, nM
O=C(O)c1cnn(C2CCCN(c3cc(Cl)ccc3-c3ccc(N4CCN(C(=O)OCC5CC5)CC4)cc3)C2)c1C(F)(F)F (single isomer, unassigned)	47.5
CC(=O)N1CCN(c2ccc(-c3ccc(Cl)cc3N3CCCC(n4ncc(C(=O)O)c4C(F)(F)F)C3)cc2)CC1 (single isomer, unassigned)	35.5
COCCCOC(=O)N1CCN(c2ccc(-c3ccc(Cl)cc3N3CCCC(n4ncc(C(=O)O)c4C(F)(F)F)C3)cc2)CC1 (single isomer, unassigned)	27
O=C(O)c1cnn(C2CCCN(c3cc(Cl)ccc3-c3ccc(N4CCN(C(=O)[C@H]5C[C@H]5F)CC4)cc3)C2)c1C(F)(F)F (single isomer, unassigned) [Example 45, hydrochloride]	14

# ---- query molecule ----
Problem: // returns reported EC50 for input CCCOC(=O)N1CCN(c2ccc(-c3ccc(Cl)cc3N3CCCC(n4ncc(C(=O)O)c4C(F)(F)F)C3)cc2)CC1 (single isomer, unassigned)
Solution: 42.5

---

# target entity: recombinant guanylate cyclase reporter cell line (Rattus norvegicus, UniProt P20595)
# Construct: expressed in transfected cells
# test description: Effect on a recombinant guanylate cyclase reporter cell line
# Assay type: cell-based
# condition details: MEC = minimum effective concentration; in some cases mean values from individual determinations
Counter-ions that a name gives are not always drawn.
measured quantity: MEC (nM)
Report only the number, with the unit nM understood.

Record excerpt, results attached:
compound	MEC / nM
O=C(O)c1cnn(C2CCCN(c3cc(Cl)ccc3-c3ccc(N4CCN(CC5C[C@@H]5F)CC4)cc3)C2)c1C(F)(F)F (single isomer, unassigned) [Example 27, hydrochloride]	3.0
CC(C)CC(=O)N1CCN(c2ccc(-c3ccc(Cl)cc3N3CCCC(n4ncc(C(=O)O)c4C(F)(F)F)C3)cc2)CC1 (single isomer, unassigned) [Example 52]	10.0
O=C(O)c1cnn(C2CCCN(c3cc(Cl)ccc3-c3ccc(N4CCN(C(=O)C5CCC5)CC4)cc3)C2)c1C(F)(F)F (single isomer, unassigned) [Example 49, hydrochloride]	1.0
CCN1CCN(c2ccc(-c3ccc(Cl)cc3N3CCCC(n4ncc(C(=O)O)c4C(F)(F)F)C3)c(C)c2)CC1 (single isomer, unassigned) [Example 73, hydrochloride]	30.0
CCC(=O)N1CCN(c2ccc(-c3ccc(Cl)cc3N3CCCC(n4ncc(C(=O)O)c4C(F)(F)F)C3)cc2)CC1 (single isomer, unassigned) [Example 37]	3.0

Problem: Give the measured MEC of CC(C)N1CCN(c2ccc(-c3ccc(Cl)cc3N3CCCC(n4ncc(C(=O)O)c4C(F)(F)F)C3)cc2)CC1 (single isomer, unassigned) [Example 6, hydrochloride] .
Solution: 10.0

Problem: Would you kindly repeat that for O=C(O)c1cnn(C2CCCN(c3cc(Cl)ccc3-c3ccc(N4CCN(CC56CC(F)(C5)C6)CC4)cc3)C2)c1C(F)(F)F (single isomer, unassigned) [Example 24, hydrochloride] ?
Solution: 3.0

Problem: Another compound to look at: O=C(O)c1cnn(C2CCCN(c3cc(Cl)ccc3-c3ccc(N4CCN(CC5(F)CC5)CC4)cc3)C2)c1C(F)(F)F (single isomer, unassigned) [Example 9, hydrochloride]
Solution: 0.3

Problem: Please do the same for O=C(O)c1cnn(C2CCCN(c3cc(Cl)ccc3-c3ccc(N4CCN(CC5CC56CC6)CC4)cc3)C2)c1C(F)(F)F (single isomer, unassigned) [Example 30, hydrochloride] as well.
Solution: 3.0

Problem: Subsequent entry: COCCCOC(=O)N1CCN(c2ccc(-c3ccc(Cl)cc3N3CCCC(n4ncc(C(=O)O)c4C(F)(F)F)C3)cc2)CC1 (single isomer, unassigned) [Example 63]
Solution: 10.0

---

# target entity: recombinant guanylate cyclase reporter cell line (Rattus norvegicus, UniProt P20595)
# Construct: expressed in transfected cells
# test description: Effect on a recombinant guanylate cyclase reporter cell line
# Format: cell-based
# condition details: MEC = minimum effective concentration; in some cases mean values from individual determinations
# Protocol: The cellular activity of the compounds according to the invention was determined using a recombinant guanylate cyclase reporter cell line, as described in F. Wunder et al., Anal. Biochem. 339, 104-112 (2005).
Structures can show the parent of a compound that is named as a salt.
measured quantity: MEC (nM)
API: value field is a number in nM; no unit string.

# annotated cases, reported MEC shown
compound	readout unit	MEC
CCN1CCN(c2ccc(-c3ccc(Cl)cc3N3CCCC(n4ncc(C(=O)O)c4C(F)(F)F)C3)c(F)c2)CC1 (single isomer, unassigned) [Example 68, hydrochloride]	nM	3.0
O=C(O)c1cnn(C2CCCN(c3cc(Cl)ccc3-c3ccc(N4CCN(CCOC(F)(F)F)CC4)cc3)C2)c1C(F)(F)F (single isomer, unassigned) [Example 35, hydrochloride]	nM	3.0
O=C(O)c1cnn(C2CCCN(c3cc(Cl)ccc3-c3ccc(N4CCN(C(=O)OCC5CC5)CC4)cc3)C2)c1C(F)(F)F (single isomer, unassigned)	nM	10.0
O=C(O)c1cnn(C2CCCN(c3cc(Cl)ccc3-c3ccc(N4CCN(CCC(F)(F)F)CC4)nc3)C2)c1C(F)(F)F (single isomer, unassigned) [Example 76, hydrochloride]	nM	1.0
O=C(O)c1cnn(C2CCCN(c3cc(Cl)ccc3-c3ccc(N4CCN(CC(F)(F)F)CC4)nc3)C2)c1C(F)(F)F (single isomer, unassigned) [Example 77]	nM	30.0
CCN1CCN(c2ccc(-c3ccc(Cl)cc3N3CCCC(n4ncc(C(=O)O)c4C(F)(F)F)C3)cc2F)CC1 (single isomer, unassigned)	nM	30.0

Problem: Could you share which MEC value was measured for O=C(O)c1cnn(C2CCCN(c3cc(Cl)ccc3-c3ccc(N4CCN(C(=O)OC5CC5)CC4)cc3)C2)c1C(F)(F)F (single isomer, unassigned) ?
Solution: 1.0

---

# target entity: recombinant guanylate cyclase reporter cell line (Rattus norvegicus, UniProt P20595)
# Construct: expressed in transfected cells
# test description: Effect on a recombinant guanylate cyclase reporter cell line
# Type: cell-based
# condition details: MEC = minimum effective concentration; in some cases mean values from individual determinations; hydrochloride
Where a name gives a salt, the structure may show the parent alone.
measured quantity: log10(MEC) (log10 of the value in nM)
// stored as log10 of MEC expressed in nM

Problem: # get_value(readout='log10(MEC)', item= O=C(O)c1cnn(C2CCCN(c3cc(Cl)ccc3-c3ccc(C4CCN(C(=O)C5CC5)CC4)cc3)C2)c1C(F)(F)F (single isomer, unassigned) [Example 84, hydrochloride] )
Solution: -0.52

Problem: Another molecule to check: O=C(O)c1cnn(C2CCCN(c3cc(Cl)ccc3-c3ccc(N4CCN(CC5CC5F)CC4)cc3)C2)c1C(F)(F)F (single isomer, unassigned) [Example 25, hydrochloride]
Solution: 1.00

Problem: Record: O=C(O)c1cnn(C2CCCN(c3cc(Cl)ccc3-c3ccc(N4CCN(CC5CC5C(F)(F)F)CC4)cc3)C2)c1C(F)(F)F (single isomer, unassigned) [Example 32, hydrochloride]
Solution: 0.48

Problem: Also O=C(O)c1cnn(C2CCCN(c3cc(Cl)ccc3-c3ccc(N4CCN(CC5CC5C(F)(F)F)CC4)cc3)C2)c1C(F)(F)F (single isomer, unassigned) [Example 33, hydrochloride] , if possible.
Solution: 1.00

Problem: Try this molecule next: O=C(O)c1cnn(C2CCCN(c3cc(Cl)ccc3-c3ccc(N4CCN(CC5CC5F)CC4)cc3)C2)c1C(F)(F)F (single isomer, unassigned) [Example 26, hydrochloride]
Solution: 0.00

Problem: Lookup O=C(O)c1cnn(C2CCCN(c3cc(Cl)ccc3-c3ccc(N4CCN(C[C@@H]5C[C@@H]5F)CC4)cc3)C2)c1C(F)(F)F (single isomer, unassigned) [Example 8, hydrochloride]
Solution: 1.00

Problem: Entry to check: CN1CCN(c2ccc(-c3ccc(Cl)cc3N3CCCC(n4ncc(C(=O)O)c4C(F)(F)F)C3)cc2)CC1 (single isomer, unassigned) [Example 2, hydrochloride]
Solution: 0.74

Problem: Input O=C(O)c1cnn(C2CCCN(c3cc(Cl)ccc3-c3ccc(N4CCN(CC(F)(F)F)CC4)nc3)C2)c1C(F)(F)F (single isomer, unassigned) [Example 74, hydrochloride]
Solution: 0.00
